- System: SW-620 colon
- Protocol notes: NCI-60 one-dose screen, 48 h (100 = growth as untreated, 0 = no growth, -100 = all killed)
- Measurement setup: 10 µM unless noted
About 83,000 compounds went through this panel and 20% of them were active in at least one assay; those are over-represented in the sample as a whole.
Could you please mark 1.0 for values of growth below 80% and 0.0 for values at or above it?

Request: Hello, is growth of the following compound strictly smaller than 80%? CC(=O)N1N=C(c2ccc(Nc3nc(Nc4ccc(Cl)cc4)nc(Nc4ccc(Cl)cc4)n3)cc2)CC1c1ccco1 (stereo unspecified)
Response: 0.0

Request: Quick check: growth of CCCC(O)Cn1ncc(C(=O)OCC)c1NC(=O)NCc1ccccc1F (stereo unspecified) under 80%?
Response: 0.0

Request: Strictly below 80%: is that where growth of Cn1cccc1C(=O)C1C(c2cccc([N+](=O)[O-])c2)C2C3CCCCC3CN2C12C(=O)Nc1ccc(Cl)cc12 (stereo unspecified) sits?
Response: 1.0

Request: State whether 80% exceeds growth recorded for C=C1C(=O)O[C@H]2[C@H]1CC/C(COC(=O)CSCCSCC(=O)OC/C1=C/CC[C@@]3(C)O[C@H]3[C@H]3OC(=O)C(=C)[C@@H]3CC1)=C\CC[C@@]1(C)O[C@@H]21 .
Response: 1.0

Request: Please indicate whether the reported growth of COc1cc2c(c(OC)c1OC)-c1ccc(OC)c(=O)cc1[C@@H](NC(=O)CCl)CC2 is strictly below 80%.
Response: 1.0

Request: Given the entry O=S(=O)(NCCCNc1nccc(-c2c(-c3ccc(F)c(O)c3)nc3occn23)n1)c1ccccc1 , would its reported growth be below 80%?
Response: 0.0

Request: Lab note: confirm whether the reported growth for this compound is below 80%, equality not counting. compound: CNc1nc(S(=O)c2ccc(C#N)cc2)nc2ccccc12 (stereo unspecified)
Response: 1.0

Request: Is growth strictly under 80% for the entry CC1=C(C(=O)OC(C)C)C(c2ccc3c(c2)OCO3)NC(=S)N1 (stereo unspecified) ?
Response: 0.0

Request: Please indicate whether the reported growth of COc1ccc2c(O)c(/C=C3\N=Nc4ncccc43)oc2c1C[C@H]1CCNC[C@H]1F is strictly below 80%.
Response: 1.0

Request: is_below(growth, 80%) for CC1=Nc2cnc(Nc3ccc(OCCN4CCCCC4)cc3)nc2Nc2ccccc21 ?
Response: 1.0

Request: Determine if O=C(/C=C(/C=C/c1cccc2[nH]ccc12)OB(F)F)/C=C/c1cccc2[nH]ccc12 shows growth strictly lower than 80%.
Response: 1.0

Request: is_below(growth, 80%) for O=C(c1ccc(-c2nc(CSc3nc4ccccc4s3)no2)cc1)N1CCSCC1 ?
Response: 0.0

Request: Strictly below 80%: is that where growth of Cc1ccc(NC(=S)NNC(=S)NNc2ccccc2)cc1C sits?
Response: 0.0

Request: I'd appreciate it if you could check whether C=C1CC[C@@H]2[C@](C)(COC(C)=O)[C@H](OC(C)=O)CC[C@@]2(C)[C@@H]1CC(Sc1ccccc1)C1=CCOC1=O (stereo partly specified) has growth smaller than 80%.
Response: 1.0

Request: Please indicate whether the reported growth of NC(=O)CCC(C(=O)O)N1C(=O)c2ccc(O)cc2C1=O (stereo unspecified) is strictly below 80%.
Response: 0.0

Request: State whether 80% exceeds growth recorded for C=C(C)[C@@H]1CC[C@]2(C(=O)N3CCN(C)CC3)CC[C@]3(C)[C@H](CC[C@@H]4[C@@]5(C)CC(=C/c6ccncc6)/C(=N/O)C(C)(C)[C@@H]5CC[C@]43C)[C@@H]12 .
Response: 1.0

Request: Does the reported growth of COc1ccc(/C=N/NC(=O)CCN2c3ccccc3Sc3ccccc32)cc1 stay below 80%?
Response: 1.0

Request: Item CCN(CC)CCSc1nc(-c2ccccc2)c(C#N)c(=O)[nH]1 : growth beneath 80%, strictly?
Response: 0.0

Request: Quick check: does COc1cc(NC(C)CCCNC(C)C)c2ncccc2c1OC (stereo unspecified) have growth under 80%?
Response: 0.0

Request: # strict comparison: is reported growth < 80%? input = O=[N+]([O-])c1ccc(N/N=C(/C(=N/Nc2ccc([N+](=O)[O-])cc2)c2ccccc2)c2ccccc2)cc1
Response: 1.0

Request: Is growth of CN1C(=O)/C(=C/c2ccc(C(=O)Nc3ncc(Cc4ccc(Cl)cc4)s3)cc2)SC1=S strictly below 80%?
Response: 1.0

Request: Answer whether the compound COc1ccc2nc3ccc(OC)cc3c(SCCCN)c2c1 has growth strictly less than 80%
Response: 1.0

Request: Strictly below 80%: is that where growth of CC12CCC3c4ccccc4CCC3(CO1)C2 (stereo unspecified) sits?
Response: 0.0

Request: In the record for COc1cc(CNC(=O)CCCC/C=C/C(C)C)ccc1OCc1nnc(Nc2ccc([N+](=O)[O-])cc2)o1 , is growth less than 80%?
Response: 1.0

Request: Is growth strictly under 80% for the entry CN(CCn1sc(=O)n(Cc2ccccc2)c1=O)Cc1ccc2c(Cl)cc(Cl)c(O)c2n1 ?
Response: 1.0

Request: Given the entry CC(=O)Nc1nc2ccc(NS(=O)(=O)c3cccc4c(N(C)C)cccc34)cc2[nH]1 , would its reported growth be below 80%?
Response: 1.0

Request: Given the entry Cc1cc2c(O)c(-c3cc(Cl)ccc3Cl)c3sc(=O)oc3c2cc1C , would its reported growth be below 80%?
Response: 1.0

Request: Answer whether the compound O=C(CSc1nc2ccc([N+](=O)[O-])cc2[nH]1)Nc1cccc(C(F)(F)F)c1 has growth strictly less than 80%
Response: 1.0

Request: Dear reviewer, please state whether N=C(N)c1ccc(-c2ccc(-c3ccc(F)cc3)o2)o1 has growth strictly beneath 80%.
Response: 1.0

Request: Is the reported growth for Cc1nnc(-n2c(O)cc(=O)n(-c3ccccc3)c2=S)nc1/C=C/c1ccc(N(C)C)cc1 strictly below 80%?
Response: 1.0

Request: Is it true that growth reported for Cc1ccc(Sc2oc(-c3ccc(C)cc3)nc2[P+](c2ccccc2)(c2ccccc2)c2ccccc2)cc1 is less than 80%?
Response: 1.0

Entry source: PubChem BioAssay (NCI)
